# tested system: GST-CIB1 : F-scrambled peptide (Homo sapiens, UniProt Q99828)
# Construct: made in house; host or cells: BL-21 plus RIL cells (E. coli)
# Sequence (Q99828 whole entry): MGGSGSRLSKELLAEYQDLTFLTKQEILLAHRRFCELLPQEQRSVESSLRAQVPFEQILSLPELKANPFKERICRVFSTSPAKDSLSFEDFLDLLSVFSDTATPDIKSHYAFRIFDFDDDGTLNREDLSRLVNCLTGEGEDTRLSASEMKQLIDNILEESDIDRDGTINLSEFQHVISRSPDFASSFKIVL
# test details: FP scrambled-peptide counter screen, 1536-well format
# Type: binding
# experimental context: scrambled-peptide counterscreen, qHTS curve class

{"columns": ["smiles entry", "COUNTERSCREEN Curve Class"],
 "data": [
  ["COC(=O)[C@]12CCC(C)(C)C[C@H]1[C@H]1C(=O)C=C3[C@@]4(C)C=C(C#N)C(=O)C(C)(C)[C@@H]4CC[C@@]3(C)[C@]1(C)CC2", -1.2],
  ["O=C(Cc1ccc(Cl)c(Cl)c1)Nc1ccc(S(=O)(=O)Nc2ccon2)cc1.O=C(O)C(F)(F)F", 4],
  ["Cc1cc(S(=O)(=O)Nc2cnccc2C(=O)Nc2nc(-c3ccccc3)cs2)c(C)o1.O=C(O)C(F)(F)F", 4]
]}

---

# tested system: CIB1 and αIIb interaction (CIB1-GST : F-αIIb peptide) (Homo sapiens, UniProt Q99828)
# Construct: made in house; host or cells: BL-21 plus RIL cells (E. coli)
# Sequence (Q99828 whole entry): as above
# test details: FP assay, 1536-well qHTS format (primary and confirmatory screen)
# Format: binding
# experimental context: qHTS primary screen hits, Table S2; read-out: IC50
# strict inequality: IC50 < 40 µM yields Criterion met, everything else yields Criterion not met

{"columns": ["compound", "class assignment"],
 "data": [
  ["NC(=O)c1cccc(-c2cnc3c(O)ccc(C(=O)O)c3c2)c1.O=C(O)C(F)(F)F", "Criterion met"],
  ["COC(=O)c1ccc(O)c2ncc(-c3ccc(C(=O)N4CCNCC4)cc3)cc12.O=C(O)C(F)(F)F", "Criterion met"],
  ["O=C(O)C(F)(F)F.O=C1CCCC2=C1C1(CCCOC1)N=C(Nc1nc3ccccc3o1)N2 (stereo not shown)", "Criterion met"],
  ["COc1cc(/C=C2/N=C(c3ccccc3)OC2=O)c(F)cc1OCc1ccccc1", "Criterion not met"],
  ["Cc1ccc(C)n1-c1ccc(C(=O)O)cc1.O=C(O)C(F)(F)F", "Criterion not met"],
  ["Cn1cnc(-c2nccc3c(O)nc(OCCCC(F)(F)F)nc23)c1.O=C(O)C(F)(F)F", "Criterion met"],
  ["Cc1ccc(C(=O)Nc2ccc(S(=O)(=O)O)c3cc(S(=O)(=O)O)cc(S(=O)(=O)O)c23)cc1NC(=O)c1cccc(NC(=O)Nc2cccc(C(=O)Nc3cc(C(=O)Nc4ccc(S(=O)(=O)O)c5cc(S(=O)(=O)O)cc(S(=O)(=O)O)c45)ccc3C)c2)c1", "Criterion met"],
  ["CNc1oc(-c2c[nH]c3ccccc23)nc1C#N.O=C(O)C(F)(F)F", "Criterion met"],
  ["Cc1ccc(S(=O)(=O)Nc2cnccc2C(=O)Nc2nc(-c3nc4ccccc4s3)cs2)cc1.O=C(O)C(F)(F)F", "Criterion met"],
  ["CN(C)c1ccc(-c2ccnc(O)c2N)cc1", "Criterion not met"],
  ["C=C(C)C(=O)OC1CC2(C)OC(=CC2=O)C(=C)CC2OC(=O)C(COC)C12 (stereo not shown)", "Criterion met"],
  ["COc1ccnc2c1CCCCC2[S+]([O-])c1nc2ccccc2[nH]1 (stereo not shown)", "Criterion not met"],
  ["Nc1ccc2nc3c(=O)n(CCc4ccccc4)c(=O)[nH]c3nc2c1.O=C(O)C(F)(F)F", "Criterion met"],
  ["O=C(O)C(F)(F)F.O=C1Nc2ccccc2/C1=N/NC(=S)Nc1cccnc1", "Criterion met"],
  ["Cc1c(C)c2c(c(C)c1OC(=O)CCC(=O)OCCO)CC[C@@](C)(CCC[C@H](C)CCC[C@H](C)CCCC(C)C)O2", "Criterion not met"],
  ["O=C(O)C(F)(F)F.O=S(=O)(Nc1nccs1)c1ccc(Nc2nc(-c3ccccc3)cs2)cc1", "Criterion not met"],
  ["Nc1cccc2c1C(=O)N(C1CCC(=O)NC1=O)C2=O (stereo not shown)", "Criterion met"],
  ["CN(C)CCc1c[nH]c2cccc(O)c12", "Criterion met"],
  ["O=C(O)C(F)(F)F.O=C1Nc2ccccc2/C1=N/NC(=S)Nc1ccccc1", "Criterion met"],
  ["O=C(O)c1ccccc1Nc1cccc(OCc2ccc3ccccc3n2)c1", "Criterion not met"],
  ["O=C(O)C(F)(F)F.c1ccc(-n2cc(-c3nnc4n3CCCCC4)cn2)cc1", "Criterion not met"]
]}
